Target protein (sequence): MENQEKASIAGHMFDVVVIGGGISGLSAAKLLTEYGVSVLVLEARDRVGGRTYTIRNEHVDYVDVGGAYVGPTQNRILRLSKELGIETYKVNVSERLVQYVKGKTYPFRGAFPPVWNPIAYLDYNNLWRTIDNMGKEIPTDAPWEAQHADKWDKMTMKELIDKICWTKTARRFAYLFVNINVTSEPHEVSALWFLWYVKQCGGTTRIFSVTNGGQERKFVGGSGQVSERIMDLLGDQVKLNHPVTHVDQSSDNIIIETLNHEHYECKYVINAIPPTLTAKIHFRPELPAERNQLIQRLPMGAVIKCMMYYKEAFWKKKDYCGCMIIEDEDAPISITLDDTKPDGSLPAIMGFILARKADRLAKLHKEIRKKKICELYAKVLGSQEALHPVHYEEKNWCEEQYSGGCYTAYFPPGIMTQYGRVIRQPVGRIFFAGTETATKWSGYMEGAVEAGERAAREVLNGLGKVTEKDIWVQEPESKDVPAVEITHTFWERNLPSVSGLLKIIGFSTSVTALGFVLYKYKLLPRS
attributeMeasured: IC50
Answers without a unit are incomplete; give the number and then its unit.

# lookup: IC50 of COc1cc(/C=C/c2ccc(O)cc2)cc(OC)c1
13.4 µM

====

- measurementTarget: MAO-A (Homo sapiens, UniProt P21397)
- Construct: purchased BD Biosciences (San Jose, CA) or Corning Discovery Labware (Woburn, MA)
- protocolSummary: MAO-A inhibition, kynuramine to 4-hydroxyquinoline, HPLC-fluorescence
- Format: biochemical
- conditionSummary: highest expected luminal concentration: curcumin 140, guaiacol 435, isoeugenol 110, pterostilbene 270, resveratrol 94, zingerone 51 µM; p < 0.05 vs control
attributeMeasured: inhibition of MAO-A activity in screening

molSmiles: COc1cc(/C=C/C(=O)CC(=O)/C=C/c2ccc(O)c(OC)c2)ccc1O
resultValue: significantly inhibited
//
molSmiles: COc1ccccc1O
resultValue: significantly inhibited
//
molSmiles: COc1cc(/C=C/c2ccc(O)cc2)cc(OC)c1
resultValue: significantly inhibited

====

- measurementTarget: MAO-B (Homo sapiens, UniProt P27338)
- Sequence (P27338 1-520): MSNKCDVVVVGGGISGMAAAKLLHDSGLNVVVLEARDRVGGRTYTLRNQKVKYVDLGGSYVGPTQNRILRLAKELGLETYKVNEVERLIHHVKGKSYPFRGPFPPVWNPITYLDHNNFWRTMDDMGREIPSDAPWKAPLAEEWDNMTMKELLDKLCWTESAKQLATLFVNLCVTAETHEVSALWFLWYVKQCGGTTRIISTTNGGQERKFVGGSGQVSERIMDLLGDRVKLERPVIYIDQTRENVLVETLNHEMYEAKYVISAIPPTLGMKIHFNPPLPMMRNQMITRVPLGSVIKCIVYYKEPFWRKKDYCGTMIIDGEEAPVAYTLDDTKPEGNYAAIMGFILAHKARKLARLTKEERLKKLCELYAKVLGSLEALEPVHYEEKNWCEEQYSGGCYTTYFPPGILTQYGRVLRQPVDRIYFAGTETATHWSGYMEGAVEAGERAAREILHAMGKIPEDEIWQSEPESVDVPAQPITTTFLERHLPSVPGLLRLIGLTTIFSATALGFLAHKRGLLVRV
attributeMeasured: pIC50
Value format note: pIC50 is -log10 of concentration (mol/L); just state the number.

Recorded pIC50 of COc1cc(/C=C/c2ccc(O)cc2)cc(OC)c1 [pterostilbene] , please.
6.86
